Listed next: entries and their corresponding IC50.
target: protein-protein interaction between Kras and SOS1 (biotin-tagged human Kras loaded with GDP, His-tagged human SOS1) (Homo sapiens (Human), UniProt P01116, G12D); experiment: Protein-protein interaction inhibition between Kras and SOS1 (KrasG12D-SOS PPI) using AlphaScreen; assay type: biochemical; details: AlphaScreen; biotin-tagged human Kras loaded with GDP, His-tagged human SOS1; read-out: KRAS G12D-SOS PPI IC50
Bridge positions count the residues as written; N and C are the ends. Square brackets hold non-standard residues; d marks the D form. Peptide text beside a SMILES is read from it. * marks the point of attachment. hPhe(3-Cl-4-CF3) = N[C@@H](CCc1ccc(C(F)(F)F)c(Cl)c1)C(=O)O; hPhe(3-F,4-CF3) = N[C@@H](CCc1ccc(C(F)(F)F)c(F)c1)C(=O)O; NMeGly(cPent) = CN[C@H](C(=O)O)C1CCCC1; NMeCha = CN[C@@H](CC1CCCCC1)C(=O)O; NMeD = CN[C@@H](CC(=O)O)C(=O)O; NMeL = CN[C@@H](CC(C)C)C(=O)O; NMeV = CN[C@H](C(=O)O)C(C)C; d(β3hA) = C[C@@H](N)CC(=O)O; Morpholide = C1CN(*)CCO1; NMeA = CN[C@@H](C)C(=O)O; dNMeA = CN[C@H](C)C(=O)O; Ac5c = NC1(C(=O)O)CCCC1; Aze = O=C(O)[C@@H]1CCN1; Sar = CNCC(=O)O
Field format: number, assumed nM, no unit text.

>>> measured_number("CC[C@H](C)[C@@H]1NC(=O)[C@H](CC(C)C)N(C)C(=O)C[C@@H](C(=O)N2CCOCC2)N(C)C(=O)[C@H](C2CCCC2)N(C)C(=O)C2(CCCC2)NC(=O)[C@@H]2CCCN2C(=O)[C@H](CCc2ccc(C(F)(F)F)c(F)c2)NC(=O)CN(C)C(=O)[C@H](CC2CCCCC2)N(C)C(=O)[C@@H]2CCN2C(=O)[C@H](C)N(C)C1=O [Compound 390] ([NMeL]I[NMeA][Aze][NMeCha][Sar][hPhe(3-F,4-CF3)]P[Ac5c][NMeGly(cPent)][NMeD]-Morpholide; lactam N-11)")
0.77

# ---- query compound ----
QUERY: Read off the recorded IC50 for CC[C@H](C)[C@@H]1NC(=O)[C@H](C)N(C)C(=O)C[C@@H](C)NC(=O)[C@H](C(C)C)N(C)C(=O)C2(CCCC2)NC(=O)[C@@H]2CCCN2C(=O)[C@H](CCc2ccc(C(F)(F)F)c(Cl)c2)NC(=O)[C@@H](C)N(C)C(=O)[C@H](CC2CCCCC2)N(C)C(=O)[C@@H]2CCN2C(=O)[C@@H]2CCN2C1=O [Compound 2013] (cyclo([Ac5c][NMeV][d(β3hA)][NMeA]I[Aze][Aze][NMeCha][dNMeA][hPhe(3-Cl-4-CF3)]P))
RESULT: 150

###

biological target: protein-protein interaction between Kras and SOS1 (biotin-tagged human Kras loaded with GDP, His-tagged human SOS1) (Homo sapiens (Human), UniProt P01116, G12D); assay: Protein-protein interaction inhibition between Kras and SOS1 (KrasG12D-SOS PPI) using AlphaScreen; format: biochemical; conditions: AlphaScreen; biotin-tagged human Kras loaded with GDP, His-tagged human SOS1; read-out: KRAS G12D-SOS PPI IC50;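 further: kras produced in E. coli, Ni-coupled donor beads and streptavidin acceptor beads, excitation 680 nm with emission detected at 520–620 nm via singlet oxygen transfer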
Numbered stars: 1 amine (or outer) side, 2 acyl side, 3 side chain; on linkers, the order of the positions; unused ones are H or OH. Bridge positions count the residues as written; N and C are the ends. Square brackets hold non-standard residues; d marks the D form. Peptide text beside a SMILES is read from it. * marks the point of attachment. hPhe(3,5-F2-4-CF3) = N[C@@H](CCc1cc(F)c(C(F)(F)F)c(F)c1)C(=O)O; hPhe(3-Cl-4-CF3) = N[C@@H](CCc1ccc(C(F)(F)F)c(Cl)c1)C(=O)O; hPhe(3-F,4-CF3) = N[C@@H](CCc1ccc(C(F)(F)F)c(F)c1)C(=O)O; NEtPhe(4-CF3) = CCN[C@@H](Cc1ccc(C(F)(F)F)cc1)C(=O)O; NEtPhe(4-Me) = CCN[C@@H](Cc1ccc(C)cc1)C(=O)O; NMePhe(4-Me) = CN[C@@H](Cc1ccc(C)cc1)C(=O)O; NMedβ3hAla = C[C@H](CC(=O)[*:2])N(C)[*:1]; NMeGly(cPent) = CN[C@H](C(=O)O)C1CCCC1; Pro(4,4-F2) = O=C(O)[C@@H]1CC(F)(F)CN1; Gly(cPent) = N[C@H](C(=O)O)C1CCCC1; NMeCha = CN[C@@H](CC1CCCCC1)C(=O)O; NMeChg = CN[C@H](C(=O)O)C1CCCCC1; NMeI = CC[C@H](C)[C@H](NC)C(=O)O; NMeD = CN[C@@H](CC(=O)O)C(=O)O; NMeL = CN[C@@H](CC(C)C)C(=O)O; NMeV = CN[C@H](C(=O)O)C(C)C; d(β3hA) = C[C@@H](N)CC(=O)O; Azetidin(1-yl) = C1CN(*)C1; NMeS = CN[C@@H](CO)C(=O)O; Morpholide = C1CN(*)CCO1; NMeA = CN[C@@H](C)C(=O)O; Piperidide = C1CCN(*)CC1; Ac5c = NC1(C(=O)O)CCCC1; Aze = O=C(O)[C@@H]1CCN1; Ac4c = NC1(C(=O)O)CCC1; Cyclobutyl = C1CC(*)C1; Sar = CNCC(=O)O; Propyl = CCC*
quantity: pIC50
// field semantics: pIC50 = negative decimal log of concentration (mol/L)

>>> measured_number("CC[C@H](C)[C@@H]1NC(=O)[C@H](C(C)C)N(C)C(=O)C[C@@H](C(=O)N2CCCCC2)N(C)C(=O)[C@H](C(C)C)N(C)C(=O)C2(CCCC2)NC(=O)[C@@H]2CCCN2C(=O)[C@H](CCc2ccc(C(F)(F)F)c(Cl)c2)NC(=O)CN(C)C(=O)[C@H](CC2CCCCC2)N(C)C(=O)[C@@H]2CCN2C(=O)[C@H](C)N(C)C1=O [Compound 1767] ([NMeV]I[NMeA][Aze][NMeCha][Sar][hPhe(3-Cl-4-CF3)]P[Ac5c][NMeV][NMeD]-Piperidide; lactam N-11)")
8.14
>>> measured_number("CC[C@H](C)[C@@H]1NC(=O)[C@H](CC(C)C)N(C)C(=O)C[C@@H](C)NC(=O)[C@H]([C@@H](C)CC)N(C)C(=O)C2(CCCC2)NC(=O)[C@@H]2CCCN2C(=O)[C@H](CCc2ccc(C(F)(F)F)c(Cl)c2)NC(=O)CN(C)C(=O)[C@H](Cc2ccc(C)cc2)N(C)C(=O)[C@@H]2CCN2C(=O)[C@H](C)N(C)C1=O [Compound 1661] (cyclo([Ac5c][NMeI][d(β3hA)][NMeL]I[NMeA][Aze][NMePhe(4-Me)][Sar][hPhe(3-Cl-4-CF3)]P))")
8.57
>>> measured_number("CC[C@H](C)[C@@H]1NC(=O)[C@H](CC(C)C)N(C)C(=O)C[C@@H](C(=O)N2CCCCC2)N(C)C(=O)[C@H](C2CCCC2)N(C)C(=O)C2(CCCC2)NC(=O)[C@@H]2CCCN2C(=O)[C@H](CCc2ccc(C(F)(F)F)c(Cl)c2)NC(=O)CN(C)C(=O)[C@H](COC2CCC2)N(C)C(=O)[C@@H]2CCN2C(=O)[C@H](C)N(C)C1=O [Compound 835] ([NMeL]I[NMeA][Aze][NMeS](Cyclobutyl)[Sar][hPhe(3-Cl-4-CF3)]P[Ac5c][NMeGly(cPent)][NMeD]-Piperidide; lactam N-11)")
9.27
>>> measured_number("CC[C@H](C)[C@@H]1NC(=O)[C@H](CC(C)C)N(C)C(=O)C[C@@H](C)N(C)C(=O)[C@H](C2CCCCC2)N(C)C(=O)C2(CCC2)NC(=O)[C@@H]2CC(F)(F)CN2C(=O)[C@H](CCc2ccc(C(F)(F)F)c(Cl)c2)NC(=O)CN(C)C(=O)[C@H](Cc2ccc(C(F)(F)F)cc2)N(CC)C(=O)[C@@H]2CCN2C(=O)[C@H](C)NC1=O [Compound 138] (cyclo(A[Aze][NEtPhe(4-CF3)][Sar][hPhe(3-Cl-4-CF3)][Pro(4,4-F2)][Ac4c][NMeChg][NMedβ3hAla][NMeL]I))")
7.36
>>> measured_number("CC[C@H](C)[C@@H]1NC(=O)[C@H](CC(C)C)N(C)C(=O)C[C@@H](C)NC(=O)[C@H](C2CCCC2)NC(=O)C2(CCCC2)NC(=O)[C@@H]2CCCN2C(=O)[C@H](CCc2ccc(C(F)(F)F)c(Cl)c2)NC(=O)CN(C)C(=O)[C@H](Cc2ccc(C)cc2)N(C)C(=O)[C@@H]2CCN2C(=O)[C@H](C)N(C)C1=O [Compound 1213] (cyclo([Ac5c][Gly(cPent)][d(β3hA)][NMeL]I[NMeA][Aze][NMePhe(4-Me)][Sar][hPhe(3-Cl-4-CF3)]P))")
7.77

QUERY: Please report the measured pIC50 for CC[C@H](C)[C@@H]1NC(=O)[C@H](CC(C)C)N(C)C(=O)C[C@@H](C(=O)N2CCOCC2)N(C)C(=O)[C@H](C(C)C)N(C)C(=O)C2(CCCC2)NC(=O)[C@@H]2CCCN2C(=O)[C@H](CCc2ccc(C(F)(F)F)c(Cl)c2)NC(=O)CN(C)C(=O)[C@H](CC2CCCCC2)N(C)C(=O)[C@@H]2CCN2C(=O)CN(C)C1=O [Compound 1758] ([NMeL]I[Sar][Aze][NMeCha][Sar][hPhe(3-Cl-4-CF3)]P[Ac5c][NMeV][NMeD]-Morpholide; lactam N-11)
RESULT: 8.92

QUERY: Consider the molecule CC[C@H](C)[C@@H]1NC(=O)[C@H](CC(C)C)N(C)C(=O)C[C@@H](C(=O)N(C)C)N(C)C(=O)[C@H](C2CCCC2)N(C)C(=O)[C@H](C)NC(=O)[C@@H]2CCCN2C(=O)[C@H](CCc2ccc(C(F)(F)F)c(Cl)c2)NC(=O)CN(C)C(=O)[C@H](CC2CCCCC2)N(C)C(=O)[C@@H]2CCN2C(=O)[C@H](C)N(C)C1=O [Compound 314] ([NMeL]I[NMeA][Aze][NMeCha][Sar][hPhe(3-Cl-4-CF3)]PA[NMeGly(cPent)][NMeD]-NMe2; lactam N-11) . State its measured pIC50.
RESULT: 8.59

QUERY: Return pIC50 for the following molecule: CCCOC[C@H]1C(=O)N(C)CC(=O)N[C@@H](CCc2ccc(C(F)(F)F)c(F)c2)C(=O)N2CCC[C@H]2C(=O)NC2(CCCC2)C(=O)N(C)[C@@H](C2CCCC2)C(=O)N(C)[C@H](C(=O)N(C)C)CC(=O)N(C)[C@@H](CC(C)C)C(=O)N[C@@H]([C@@H](C)CC)C(=O)N(C)[C@@H](C)C(=O)N2CC[C@H]2C(=O)N1C [Compound 289] ([NMeL]I[NMeA][Aze][NMeS](Propyl)[Sar][hPhe(3-F,4-CF3)]P[Ac5c][NMeGly(cPent)][NMeD]-NMe2; lactam N-11)
RESULT: 9.52

QUERY: Write down pIC50 measured for item CC[C@H](C)[C@@H]1NC(=O)[C@H](CC(C)C)N(C)C(=O)C[C@@H](C(=O)N2CCC2)N(C)C(=O)[C@H](C2CCCC2)N(C)C(=O)C2(CCCC2)NC(=O)[C@@H]2CCCN2C(=O)[C@H](CCc2cc(F)c(C(F)(F)F)c(F)c2)NC(=O)CN(C)C(=O)[C@H](Cc2ccc(C)cc2)N(CC)C(=O)[C@@H]2CCN2C(=O)[C@H](C)N(C)C1=O [Compound 55] ([NMeL]I[NMeA][Aze][NEtPhe(4-Me)][Sar][hPhe(3,5-F2-4-CF3)]P[Ac5c][NMeGly(cPent)][NMeD]-{Azetidin(1-yl)}; lactam N-11)
RESULT: 9.11
